Data provenance: patent US20030114402A1

Target: DNA cytosine-5 methyltransferase (DCMTase, Dnmt1) (Mus musculus, UniProt P13864 P13864:1-1620)
Sequence (P13864 whole entry, one chain of several): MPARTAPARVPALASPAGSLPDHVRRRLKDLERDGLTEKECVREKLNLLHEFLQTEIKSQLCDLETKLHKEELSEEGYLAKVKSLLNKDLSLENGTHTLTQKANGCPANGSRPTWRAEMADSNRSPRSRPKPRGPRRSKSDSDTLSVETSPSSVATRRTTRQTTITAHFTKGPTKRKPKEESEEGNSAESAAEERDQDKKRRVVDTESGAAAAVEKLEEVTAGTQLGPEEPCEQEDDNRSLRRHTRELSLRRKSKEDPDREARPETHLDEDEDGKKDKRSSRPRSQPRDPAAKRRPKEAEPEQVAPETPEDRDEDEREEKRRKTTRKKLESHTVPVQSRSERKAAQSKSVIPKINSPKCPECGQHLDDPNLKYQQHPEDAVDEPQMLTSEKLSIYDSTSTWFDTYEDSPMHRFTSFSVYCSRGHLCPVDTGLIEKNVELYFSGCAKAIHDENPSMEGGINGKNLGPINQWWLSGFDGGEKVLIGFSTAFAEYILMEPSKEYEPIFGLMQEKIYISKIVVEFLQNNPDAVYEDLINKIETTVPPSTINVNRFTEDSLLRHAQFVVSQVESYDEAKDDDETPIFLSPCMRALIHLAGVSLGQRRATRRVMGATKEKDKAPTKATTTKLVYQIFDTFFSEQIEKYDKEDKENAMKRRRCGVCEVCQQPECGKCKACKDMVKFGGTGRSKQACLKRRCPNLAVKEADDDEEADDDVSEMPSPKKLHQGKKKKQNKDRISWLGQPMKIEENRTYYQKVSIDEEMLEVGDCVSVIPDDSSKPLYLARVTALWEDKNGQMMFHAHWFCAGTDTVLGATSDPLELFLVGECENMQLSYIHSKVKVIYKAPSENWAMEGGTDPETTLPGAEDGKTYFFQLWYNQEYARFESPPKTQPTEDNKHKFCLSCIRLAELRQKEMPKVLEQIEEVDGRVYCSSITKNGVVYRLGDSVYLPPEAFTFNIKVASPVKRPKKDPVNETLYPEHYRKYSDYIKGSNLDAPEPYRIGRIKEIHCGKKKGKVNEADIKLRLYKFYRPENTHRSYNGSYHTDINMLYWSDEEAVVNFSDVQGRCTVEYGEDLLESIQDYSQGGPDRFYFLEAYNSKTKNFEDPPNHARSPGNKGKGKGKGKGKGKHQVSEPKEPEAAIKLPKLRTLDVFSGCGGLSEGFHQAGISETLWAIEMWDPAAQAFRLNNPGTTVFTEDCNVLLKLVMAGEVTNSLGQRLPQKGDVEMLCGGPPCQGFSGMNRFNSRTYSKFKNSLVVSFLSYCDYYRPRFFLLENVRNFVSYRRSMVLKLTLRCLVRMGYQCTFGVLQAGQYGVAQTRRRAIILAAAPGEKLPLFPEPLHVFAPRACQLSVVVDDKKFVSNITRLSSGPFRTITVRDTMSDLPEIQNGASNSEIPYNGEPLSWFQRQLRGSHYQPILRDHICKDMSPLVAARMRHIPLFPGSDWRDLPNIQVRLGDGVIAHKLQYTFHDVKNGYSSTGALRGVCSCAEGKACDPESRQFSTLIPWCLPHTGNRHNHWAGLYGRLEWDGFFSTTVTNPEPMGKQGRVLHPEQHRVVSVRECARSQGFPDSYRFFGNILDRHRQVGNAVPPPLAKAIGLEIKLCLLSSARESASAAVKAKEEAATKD
Assay: EMSA; unit printed as mM (text indicates micromolar)
Conditions: tags: none; purified from mouse erythroleukemia (MEL) cells
Outcome measure: Kd
Quick note: number first, unit second.

>>> df
                                     binder  result
0  GGGAATTCAAGGGGCGGGGCAAGGATCCAG (ssDNA) [GC-box a]  1.2 µM

Q. Give recorded Kd. CTGGATCCTTGCCCCGCCCCTTGAATTCCC (ssDNA) [GC-box b]
A. 1.3 µM
